B1: LINE1-full (parent)
chain: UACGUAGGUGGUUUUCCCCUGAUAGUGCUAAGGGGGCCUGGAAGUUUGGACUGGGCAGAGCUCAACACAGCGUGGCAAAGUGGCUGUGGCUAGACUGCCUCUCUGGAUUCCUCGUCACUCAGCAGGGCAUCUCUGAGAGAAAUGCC

# Variants of: B1
# RUN_DESCRIPTION: self-cleavage, relative activity (ratio to wild type); higher = more cleavage; in vitro, sequencing; the parent is a self-cleaving ribozyme
ASSAY_METRIC: self-cleavage
The reply should be a number, written without any unit.

**Q:** Query self-cleavage for C103A A117G
**A:** 1.49
